- measurement_protocol: Pharmacokinetic evaluation in ICR mice
- Type: in vivo
- assay_setup: mouse, plasma, po, 5 mg/kg
I'd be grateful if you could share measured half-life for these entries.
Please give a number only; it is taken to be in h.

Query: Annotate the molecule CCS(=O)(=O)c1ccc([C@H](CC#N)NC(=O)c2ccc(N3CC(Oc4ccc(C(F)(F)F)cn4)C[C@H]3COC(F)F)cc2)cc1 (stereo in doubt) [Example 65] with its measured half-life.
Reply: 7.9

Query: Annotate the molecule CCS(=O)(=O)c1ccc([C@H](CC#N)NC(=O)c2ccc(N3C[C@@H](Oc4ccc(OC(F)F)cc4)C[C@H]3COC(F)F)cc2)cc1 [Example 22] with its measured half-life.
Reply: 3.6

Query: Annotate the molecule CCS(=O)(=O)c1ccc([C@H](CC#N)NC(=O)c2ccc(N3CC(Oc4ccc(OC(F)(F)F)cc4)C[C@H]3COC(F)F)cc2)cc1 (stereo in doubt) [Example 64] with its measured half-life.
Reply: 13.2

Query: Annotate the molecule CCS(=O)(=O)c1ccc([C@H](CC#N)NC(=O)c2ccc(N3C[C@@H](Oc4ccc(C(F)(F)F)cc4)C[C@H]3COC(F)F)cc2)cc1 [Example 47] with its measured half-life.
Reply: 11.1

###

- measurement_protocol: Stability in rat liver microsomes
- Assay type: in vitro ADME
- assay_setup: rat, liver microsomes, pH 7.4; 0.5 mg protein/mL, 1.5 μM compound, 37° C., NADPH; read-out: Rat Half-life t1/2
property: half-life at 1.5 μM

Query: Annotate the compound `CCS(=O)(=O)c1ccc([C@H](CC#N)NC(=O)c2ccc(N3C[C@@H](Oc4ccc(C(F)(F)F)cc4)C[C@H]3COC(F)F)cc2)cc1` with its measured half-life at 1.5 μM.
Reply: 22.4 h

###

I'd be grateful if you could share measured AUC(0-t) for these entries.
- measurement_protocol: Pharmacokinetic evaluation in ICR mice
- Format: in vivo
- assay_setup: mouse, plasma, po, 5 mg/kg
Please give a number only; it is taken to be in µM·h.

Query: Annotate the compound CCS(=O)(=O)c1ccc([C@H](CC#N)NC(=O)c2ccc(N3CC(Oc4ccc(C(F)(F)F)cn4)C[C@H]3COC(F)F)cc2)cc1 (stereo in doubt) with its measured AUC(0-t).
Reply: 78

Query: Annotate the compound `CCS(=O)(=O)c1ccc([C@H](CC#N)NC(=O)c2ccc(N3C[C@@H](Oc4ccc(C(F)(F)F)cc4)C[C@H]3COC(F)F)cc2)cc1` with its measured AUC(0-t).
Reply: 23.5

Query: Annotate the compound `CCS(=O)(=O)c1ccc([C@H](CC#N)NC(=O)c2ccc(N3C[C@@H](Oc4ccc(OC(F)F)cc4)C[C@H]3COC(F)F)cc2)cc1` with its measured AUC(0-t).
Reply: 37

Query: Annotate the compound CCS(=O)(=O)c1ccc([C@H](CC#N)NC(=O)c2ccc(N3CC(Oc4ccc(OC(F)(F)F)cc4)C[C@H]3COC(F)F)cc2)cc1 (stereo in doubt) with its measured AUC(0-t).
Reply: 47.2

###

I'd be grateful if you could share measured log10 IC50 for these entries.
- tested_system: RORγt (Homo sapiens)
- Construct: […]
- Sequence (P51449 269-508 limits assumed): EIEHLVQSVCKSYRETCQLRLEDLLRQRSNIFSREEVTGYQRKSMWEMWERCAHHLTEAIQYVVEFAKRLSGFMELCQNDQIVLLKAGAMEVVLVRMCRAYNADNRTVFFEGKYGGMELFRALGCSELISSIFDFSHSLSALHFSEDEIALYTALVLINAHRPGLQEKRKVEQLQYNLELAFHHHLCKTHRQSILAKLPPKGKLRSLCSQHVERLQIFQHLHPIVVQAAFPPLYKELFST
- measurement_protocol: Fluorescence resonance energy transfer (FRET) test, inhibitory activity of RORγt
- Type: biochemical
- assay_setup: FRET, B-RORγt LBD / Biotin-SRC1; read-out: IC50
Scale: decimal log of IC50, IC50 in nM.

Query: // fetch log10 IC50; item: `CCC(F)(F)OC[C@H]1CC[C@@H](c2ccc(C(F)(F)F)cc2)CN1c1ccc(C(=O)N[C@H](CC#N)c2ccc(S(=O)(=O)CC)cc2)cc1` ; system: RORγt (Homo sapiens)
Reply: 0.85

Query: // fetch log10 IC50; item: `CCS(=O)(=O)c1ccc([C@H](COC(N)=O)NC(=O)c2ccc(N3C[C@@H](Oc4ccc(Cl)cn4)C[C@H]3COC(F)F)cc2)cc1` ; system: RORγt (Homo sapiens)
Reply: 0.70

Query: // fetch log10 IC50; item: `CCS(=O)(=O)c1ccc([C@H](COC(N)=O)NC(=O)c2ccc(N3C[C@@H](Oc4ccc(-n5nccn5)cn4)C[C@H]3COC(F)F)nc2)cc1` ; system: RORγt (Homo sapiens)
Reply: 0.58

Query: // fetch log10 IC50; item: CCS(=O)(=O)c1ccc([C@H](CCC#N)NC(=O)c2ccc(N3CC(Oc4ccc(C(F)(F)F)cc4)C[C@H]3COC(F)F)cc2)cc1 (stereo in doubt) ; system: RORγt (Homo sapiens)
Reply: 1.15

Query: // fetch log10 IC50; item: `CCS(=O)(=O)c1ccc([C@H](CCCC(=O)O)NC(=O)c2ccc(N3C[C@@H](Oc4ccc(C(F)(F)F)cc4)C[C@H]3COC(F)F)cc2)cc1` ; system: RORγt (Homo sapiens)
Reply: 1.72

Query: // fetch log10 IC50; item: `CCS(=O)(=O)c1ccc([C@H](CC#N)NC(=O)c2ccc(N3C[C@@H](Oc4ccc(-n5nccn5)cc4)C[C@H]3COC(F)F)cc2)cc1` ; system: RORγt (Homo sapiens)
Reply: 0.84

Query: // fetch log10 IC50; item: `CCS(=O)(=O)c1ccc([C@H](CC(=O)O)NC(=O)c2ccc(N3C[C@@H](Oc4ccc(-n5cccn5)cn4)C[C@H]3COC(F)F)cc2)cc1` ; system: RORγt (Homo sapiens)
Reply: 1.37

Query: // fetch log10 IC50; item: CCS(=O)(=O)c1ccc([C@H](CC#N)NC(=O)c2ccc(N3CC(Oc4ccc(C(F)(F)F)cc4)C[C@H]3COC(F)F)c(OC)c2)cc1 (stereo in doubt) ; system: RORγt (Homo sapiens)
Reply: 1.91

Query: // fetch log10 IC50; item: `CCS(=O)(=O)c1ccc([C@H](CC#N)NC(=O)c2ccc(N3C[C@@H](Oc4ccc(C(F)(F)F)cc4)C[C@H]3COC(F)F)cc2)cc1` ; system: RORγt (Homo sapiens)
Reply: 1.00

Query: // fetch log10 IC50; item: `CCS(=O)(=O)c1ccc([C@H](CC#N)NC(=O)c2ccc(N3C[C@@H](Oc4ccc(-n5cccn5)cn4)C[C@H]3COC(F)F)cc2)cc1` ; system: RORγt (Homo sapiens)
Reply: 0.87

Query: // fetch log10 IC50; item: `CCS(=O)(=O)c1ccc([C@H](COC(N)=O)NC(=O)c2ccc(N3C[C@@H](Oc4ccc(C(F)(F)F)cc4)C[C@H]3COC(F)F)cc2)cc1` ; system: RORγt (Homo sapiens)
Reply: 0.89

Query: // fetch log10 IC50; item: `CCS(=O)(=O)c1ccc([C@H](CC#N)NC(=O)c2ccc(N3C[C@@H](Oc4ccc(OC)cn4)C[C@H]3COC(F)F)cc2)cc1` ; system: RORγt (Homo sapiens)
Reply: 1.23
